Test system: B16 mouse melanoma cell line
ASSAY_PROCEDURE: In vitro anti-cancer efficacy, B16, SRB method, 48 hours
Assay type: cell-based
TEST_CONTEXT: Table 1; 48 hours
Description: The above compounds were dissolved in DMSO at stock concentration of 10 mg/ml and stored at 4° C. Before each experiment they were diluted to desired concentration with serum-free RPMI 1640 medium 2. B16 mouse melanoma cell line: B16 cells were maintained under the same condition as above. 2×10^4 cells/well were plated on 48-well plate and left for 12 hours for attachment. […] Numbers of live cells were determined by SRB method. […] 0.2 ml Tris buffer (pH 9.6) was added and OD510 was recorded. […]
I'd be grateful if you could share measured B16 IC90 for these entries.
Numbers only, in µg/mL.

COMPOUND: CC(C)(C)CCCCCCCCCCCCc1ccc(O)cc1O
TEST_TARGET: B16 mouse melanoma cell line
B16 IC90, µg/mL: 5.42

COMPOUND: CC(C)CCCCCCCCCCCCc1ccc(O)c(O)c1O
TEST_TARGET: B16 mouse melanoma cell line
B16 IC90, µg/mL: 19.5

COMPOUND: CC(C)CCCCCCCCCCCCc1ccc(O)cc1O
TEST_TARGET: B16 mouse melanoma cell line
B16 IC90, µg/mL: 5.14

COMPOUND: CC(C)CCCCCCCCCCCc1nnc(S)s1
TEST_TARGET: B16 mouse melanoma cell line
B16 IC90, µg/mL: 8.05

COMPOUND: CC(C)CCCCCCCCCCCC(=O)Nc1ccc(S(=O)(=O)O)cc1
TEST_TARGET: B16 mouse melanoma cell line
B16 IC90, µg/mL: 35.7

COMPOUND: CCC(C)CCCCCCCCCCCc1ccc(O)cc1O (stereo not shown)
TEST_TARGET: B16 mouse melanoma cell line
B16 IC90, µg/mL: 13.8

// moving on: another record for B16 IC90
Fill in: B16 IC90 of CC(C)CCCCCCCCCCC(=O)c1ccc(O)cc1O is ___ 8.12

###

System: B16 mouse melanoma cell line
ASSAY_PROCEDURE: In vitro anti-cancer efficacy, B16, SRB method, 48 hours
Format: cell-based
TEST_CONTEXT: Mus musculus; Table 2; unit inferred; methods same as in Experiment 1; read-out: B16 IC90
OBSERVABLE: IC90 (µg/mL)
One number for each entry, in µg/mL.

MOLECULE: CC(C)CC=CCCCCC(=O)O
TEST_TARGET: B16 mouse melanoma cell line
MEASURE_UNIT: µg/mL
IC90: 269

Please state IC90 for every molecule in the list that follows.
1. CC(C)CCCCCCCC(=O)O [9-methyl-decanoic acid, reference compound]
2. CC(C)CCCCCCCCCCCCCC(=O)O [15-methyl-hexadecanoic acid, reference compound]
3. CC(C)CCCCCC=CC(=O)O
4. CC(C)CCCCCCCC=CCCCCC(=O)O

280
38.2
91
35.2

###

Tested on: K562 human leukemia cell line
ASSAY_PROCEDURE: In vitro anti-cancer efficacy, K562, trypan blue dye exclusion, 48 hours
Format: cell-based
TEST_CONTEXT: Table 1; 48 hours
OBSERVABLE: K562 IC50 (µg/mL)
Numbers only, in µg/mL.

Some compounds with recorded K562 IC50:
COMPOUND: CC(C)CCCCCCCCCCCC(=O)Nc1ccc(S(=O)(=O)O)cc1 [Compound 2]
TEST_TARGET: K562 human leukemia cell line
K562 IC50 / µg/mL: 27.1
--
COMPOUND: CC(C)CCCCCCCCCCCc1nnc(S)s1 [Compound 30]
TEST_TARGET: K562 human leukemia cell line
K562 IC50 / µg/mL: 6.10

Now consider the entry below.
Which measured K562 IC50 value corresponds to CC(C)(C)CCCCCCCCCCCCc1ccc(O)cc1O [Compound 22] ? 3.92
